# Assay system: HLA-B*07:02
# Method notes: IEDB peptide-MHC binding, purified MHC/direct/fluorescence; filed as Kd, often an IC50 or EC50 that approximates it; bounds were set here for any values at or beyond the usual limits of such assays
# Condition summary: source organism: Human immunodeficiency virus 1
Experimental readout: Kd (nM)
Quick note: give the figure in nM, leave out the unit.

Input: Reported Kd for RPMTYKAAL : what is it?
Output: 39.6

----------
# Assay system: HLA-A*02:16
# Method notes: IEDB peptide-MHC binding, purified MHC/competitive/fluorescence; filed as Kd, often an IC50 or EC50 that approximates it; bounds were set here for any values at or beyond the usual limits of such assays
# Condition summary: source organism: Human immunodeficiency virus type 1 (ELI ISOLATE)
Experimental readout: Kd

Input: Entry FLGRIWPS has what Kd?
Output: ≤ 0.1 nM

----------
# Assay system: HLA-B*08:01
# Method notes: IEDB peptide-MHC binding, purified MHC/competitive/fluorescence; filed as Kd, often an IC50 or EC50 that approximates it; bounds were set here for any values at or beyond the usual limits of such assays
# Condition summary: source organism: Human immunodeficiency virus 1
pKd: −log10 of the molar value.
Experimental readout: pKd

Input: Recorded pKd of GTEEIKSLY , please.
Output: ≤ 4.70

----------
# Assay system: HLA-A*02:11
# Method notes: IEDB peptide-MHC binding, purified MHC/competitive/fluorescence; filed as Kd, often an IC50 or EC50 that approximates it; bounds were set here for any values at or beyond the usual limits of such assays
# Condition summary: source organism: Entamoeba histolytica HM-1:IMSS
Experimental readout: Kd

Input: Consider the sequence shown here: IGKMNKHYK What is its recorded Kd?
Output: ≥ 20 µM

----------
Please provide measured pIC50 for the entries that follow.
# Assay system: HLA-A*02:01
# Method notes: IEDB peptide-MHC binding, purified MHC/competitive/fluorescence; bounds were set here for any values at or beyond the usual limits of such assays
# Condition summary: source organism: Zaire ebolavirus
Interpret pIC50 as the negative base-10 log of the concentration measured in mol/L.

Input: I am curious: what pIC50 value has been reported for KLFLESGAV ?
Output: 5.76

Input: Dear colleague, I am looking for the recorded pIC50 of the following sequence: ATAHGSTLA
Output: 4.27

Input: What does the record list as pIC50 for LQVSDVDKL ?
Output: 5.25

Input: Could you share which pIC50 value was measured for GTSNRTPTV ?
Output: 5.89

Input: What measured pIC50 goes with RTAKVKNEV ?
Output: 4.24

Input: Form field: reported pIC50 of FMAILQHHQ
Output: 5.96

----------
# Assay system: HLA-A*26:01
# Method notes: IEDB peptide-MHC binding, purified MHC/direct/fluorescence; filed as Kd, often an IC50 or EC50 that approximates it; bounds were set here for any values at or beyond the usual limits of such assays
# Condition summary: source organism: Burkholderia mallei ATCC 23344
Experimental readout: Kd

Input: Recorded Kd of QHAWPLPPL , please.
Output: ≥ 20 µM

----------
# Assay system: HLA-C*12:03
# Method notes: IEDB peptide-MHC binding, purified MHC/direct/fluorescence; filed as Kd, often an IC50 or EC50 that approximates it; bounds were set here for any values at or beyond the usual limits of such assays
# Condition summary: source organism: Homo sapiens
Experimental readout: pKd
Please note pKd is a logarithmic value: minus log10 of concentration in mol/L. Answer with that number alone.

Input: pKd for YMNGTMSQV ?
Output: 7.06

----------
# Assay system: HLA-A*02:03
# Method notes: IEDB peptide-MHC binding, purified MHC/competitive/radioactivity; filed as Kd, often an IC50 or EC50 that approximates it; bounds were set here for any values at or beyond the usual limits of such assays
# Condition summary: source organism: Mammarenavirus juninense
Experimental readout: Kd (nM)
Give your result in nM as a bare value.

Input: // returns reported Kd for input KSGLFQFFV
Output: 1550

Input: What value of Kd has been recorded for this entry: GLSQFTQTV
Output: 0.699

----------
# Assay system: HLA-B*45:06
# Method notes: IEDB peptide-MHC binding, purified MHC/competitive/fluorescence; filed as Kd, often an IC50 or EC50 that approximates it; bounds were set here for any values at or beyond the usual limits of such assays
# Condition summary: source organism: Human immunodeficiency virus 1
pKd: −log10 of the molar value.
Experimental readout: pKd

Input: Need pKd of RPMTYKAAL , thanks.
Output: ≤ 5.30

----------
# Assay system: HLA-B*83:01
# Method notes: IEDB peptide-MHC binding, purified MHC/competitive/fluorescence; filed as Kd, often an IC50 or EC50 that approximates it; bounds were set here for any values at or beyond the usual limits of such assays
# Condition summary: source organism: Entamoeba histolytica HM-1:IMSS
Experimental readout: Kd

Input: Tell me the measured Kd of SMFERDFHF , please.
Output: ≥ 5 µM

----------
# Assay system: HLA-B*58:01
# Method notes: IEDB peptide-MHC binding, purified MHC/direct/fluorescence; filed as Kd, often an IC50 or EC50 that approximates it; bounds were set here for any values at or beyond the usual limits of such assays
# Condition summary: source organism: West Nile virus strain PTRoxo
Experimental readout: Kd

Input: # lookup: Kd of EIPDVLNSL
Output: ≥ 20 µM

----------
# Assay system: HLA-A*02:01
# Method notes: IEDB peptide-MHC binding, purified MHC/competitive/radioactivity; filed as Kd, often an IC50 or EC50 that approximates it; bounds were set here for any values at or beyond the usual limits of such assays
# Condition summary: source organism: Homo sapiens
Give measured Kd for each item. Keep answers brief.
Quick note: give the figure in nM, leave out the unit.

Input: So what's the measured Kd for this one? VVLSWAPPV
Output: 8.4

Input: Which measured Kd value corresponds to LTVILGVLL ?
Output: 2630

Input: Recorded Kd for SLHVGTQCA , please?
Output: 1440

Input: Would you kindly share the measured Kd for ELRSKREQEV ?
Output: 18800

----------
# Assay system: HLA-B*18:01
# Method notes: IEDB peptide-MHC binding, purified MHC/competitive/fluorescence; filed as Kd, often an IC50 or EC50 that approximates it; bounds were set here for any values at or beyond the usual limits of such assays
# Condition summary: source organism: Orthomarburgvirus marburgense
pKd: −log10 of the molar value.
Experimental readout: pKd

Input: Consider the sequence GIADFIIFK and give its measured pKd.
Output: ≤ 4.70

----------
# Assay system: HLA-A*24:03
# Method notes: IEDB peptide-MHC binding, purified MHC/direct/fluorescence; filed as Kd, often an IC50 or EC50 that approximates it; bounds were set here for any values at or beyond the usual limits of such assays
# Condition summary: source organism: Giardia lamblia ATCC 50803
pKd: −log10 of the molar value.
Provide the reported pKd of each item.

Input: # value lookup — system HLA-A*24:03, readout pKd, item MHYGYNRAN
Output: ≤ 4.70

Input: Give recorded pKd with HLA-A*24:03 for the following sequence: APDGFYPFK
Output: ≤ 4.70

----------
# Assay system: HLA-B*51:01
# Method notes: IEDB peptide-MHC binding, purified MHC/competitive/radioactivity; filed as Kd, often an IC50 or EC50 that approximates it; bounds were set here for any values at or beyond the usual limits of such assays
# Condition summary: source organism: Dengue virus 3 Martinique/1243/1999
Experimental readout: pKd
Units for pKd: none; it is -log10 of a concentration expressed in mol/L.

Input: Name the recorded pKd for LPVWLAHKV .
Output: 6.90

Input: // lookup pKd for EPPFGESNI
Output: 4.95

Input: Fill in: pKd of FTMGVLCLAI is ___
Output: 5.06

Input: Report pKd for LTAAVLLLI please.
Output: 6.19

----------
# Assay system: HLA-A*02:03
# Method notes: IEDB peptide-MHC binding, purified MHC/competitive/fluorescence; filed as Kd, often an IC50 or EC50 that approximates it; bounds were set here for any values at or beyond the usual limits of such assays
# Condition summary: source organism: Entamoeba dispar SAW760
Experimental readout: Kd

Input: Reported Kd for LMTHTWHAK : what is it?
Output: ≥ 20 µM

----------
# Assay system: HLA-A*26:01
# Method notes: IEDB peptide-MHC binding, purified MHC/competitive/fluorescence; filed as Kd, often an IC50 or EC50 that approximates it; bounds were set here for any values at or beyond the usual limits of such assays
# Condition summary: source organism: Orthohantavirus tulaense
pKd: −log10 of the molar value.
Experimental readout: pKd

Input: Look at this sequence and give its reported pKd. SLFGAAVSL
Output: ≤ 4.70

----------
# Assay system: HLA-A*02:03
# Method notes: IEDB peptide-MHC binding, purified MHC/direct/fluorescence; filed as Kd, often an IC50 or EC50 that approximates it; bounds were set here for any values at or beyond the usual limits of such assays
# Condition summary: source organism: Coxiella burnetii
pKd: −log10 of the molar value.
Experimental readout: pKd

Input: # get_value(readout= pKd, system= HLA-A*02:03) for KFFMVHSLK
Output: ≤ 4.70
